# tested.system: Cytochrome P450 2B1 (Rattus norvegicus)
pIC50: −log10 of the molar value.
endpoint.label: pIC50

If you can, please state the reported pIC50 value of C#CCOc1ccc(-c2cc(O)c3c(=O)cccc-3o2)cc1 .
< 4.60

====

# tested.system: Cytochrome P450 1A1 (Homo sapiens)
# Sequence (P04798 whole entry): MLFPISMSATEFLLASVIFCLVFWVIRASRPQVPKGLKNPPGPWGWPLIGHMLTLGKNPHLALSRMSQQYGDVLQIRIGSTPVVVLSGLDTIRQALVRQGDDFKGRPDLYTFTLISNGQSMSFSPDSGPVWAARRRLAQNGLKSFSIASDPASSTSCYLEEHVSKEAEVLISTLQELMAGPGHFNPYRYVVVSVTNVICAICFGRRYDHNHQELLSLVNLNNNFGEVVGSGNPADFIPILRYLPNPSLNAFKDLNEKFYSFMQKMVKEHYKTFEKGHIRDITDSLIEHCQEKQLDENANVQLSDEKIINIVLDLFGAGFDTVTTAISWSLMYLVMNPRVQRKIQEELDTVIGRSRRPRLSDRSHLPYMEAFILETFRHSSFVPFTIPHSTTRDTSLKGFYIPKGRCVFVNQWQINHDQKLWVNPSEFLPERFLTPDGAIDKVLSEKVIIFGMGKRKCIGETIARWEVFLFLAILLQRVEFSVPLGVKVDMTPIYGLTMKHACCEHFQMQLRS
# test.details: Inhibition of CYP1A1 (unknown origin)-mediated deethylation of resorufin ethyl ether after 5 mins by spectrofluorimetric analysis
endpoint.label: IC50 (µM)
I only need the number, in µM, no unit after it.

Can you look up IC50 on Cytochrome P450 1A1 (Homo sapiens) for O=c1cc(-c2ccccc2)oc2cccc(O)c12 [5-Hydroxy-2-phenyl-chromen-4-one] ?
4.03

// data source = BindingDB's records for doi:10.1021/jm4003654
